- Test system: Epidermal growth factor receptor (Homo sapiens) (UniProt P00533)
- Sequence (P00533 whole entry, looked up): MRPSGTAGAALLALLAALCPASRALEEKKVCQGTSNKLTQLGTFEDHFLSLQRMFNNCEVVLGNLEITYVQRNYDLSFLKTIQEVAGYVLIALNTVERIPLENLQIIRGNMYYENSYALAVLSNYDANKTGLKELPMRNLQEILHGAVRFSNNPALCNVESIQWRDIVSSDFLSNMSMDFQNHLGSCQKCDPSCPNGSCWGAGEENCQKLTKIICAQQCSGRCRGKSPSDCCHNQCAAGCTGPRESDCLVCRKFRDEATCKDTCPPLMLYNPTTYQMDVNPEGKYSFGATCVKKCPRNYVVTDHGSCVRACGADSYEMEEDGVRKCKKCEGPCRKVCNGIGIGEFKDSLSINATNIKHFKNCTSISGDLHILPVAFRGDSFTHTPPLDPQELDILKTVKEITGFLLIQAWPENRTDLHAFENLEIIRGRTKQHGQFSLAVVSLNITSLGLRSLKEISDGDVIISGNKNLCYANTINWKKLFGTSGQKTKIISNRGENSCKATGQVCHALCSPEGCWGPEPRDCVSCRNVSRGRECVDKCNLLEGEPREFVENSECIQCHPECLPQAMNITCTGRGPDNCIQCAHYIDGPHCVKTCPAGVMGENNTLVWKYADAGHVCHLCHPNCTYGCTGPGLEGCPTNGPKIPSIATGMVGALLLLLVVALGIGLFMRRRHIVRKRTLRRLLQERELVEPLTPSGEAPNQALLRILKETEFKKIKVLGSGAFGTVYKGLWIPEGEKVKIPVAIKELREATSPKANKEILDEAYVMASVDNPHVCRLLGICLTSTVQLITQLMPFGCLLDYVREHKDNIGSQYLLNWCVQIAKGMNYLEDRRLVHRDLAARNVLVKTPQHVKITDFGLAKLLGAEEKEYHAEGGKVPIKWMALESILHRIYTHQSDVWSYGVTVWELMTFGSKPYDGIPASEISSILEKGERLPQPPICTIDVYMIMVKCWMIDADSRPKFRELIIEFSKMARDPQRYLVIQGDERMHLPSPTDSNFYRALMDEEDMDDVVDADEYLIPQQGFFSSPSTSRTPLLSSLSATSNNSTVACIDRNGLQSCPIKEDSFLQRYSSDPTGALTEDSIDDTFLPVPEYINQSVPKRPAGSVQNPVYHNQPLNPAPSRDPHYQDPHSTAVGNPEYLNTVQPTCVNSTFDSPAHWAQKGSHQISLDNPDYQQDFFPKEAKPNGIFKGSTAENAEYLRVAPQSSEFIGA
- Assay text: EGFR binders on small-molecule microarrays, primary screen, biochemical, small-molecule microarray, 635 nm fluorescence (AID 1104);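 note: score merges 667 nm emission intensity with spot signal to noise over triplicate slides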
- Measurement conditions: EGFR binding, higher = more signal
The entries below come with measured composite z-score values attached.
Assay endpoint: composite z-score

smiles_str=CC(C)[C@@H](OCc1ccccc1)[C@H](C)C=NOC[C@@H](C)[C@H](OCc1ccccc1)C(C)C test_value=0.363
smiles_str=CO[C@@H]1COC(=O)[C@@H]2CCCN2C(=O)[C@@H](C)COC(=O)[C@H](COCc2ccccc2)NC(=O)CC=C[C@H]1C test_value=0.239
smiles_str=COC(=O)[C@@H]1N=C(c2ccc(OCCCO)cc2)O[C@@H]1c1ccccc1N=[N+]=[N-] test_value=-0.356
smiles_str=CC(=O)OC[C@H]1O[C@H](CCON=C[C@@H](C)[C@H](OCc2ccccc2)C(C)C)C=C[C@@H]1OC(C)=O test_value=0.365

###

- System: Chordin-like protein 2 (CHRDL2)
- Assay text: CHRDL2 small-molecule binders, primary screen, biochemical, small-molecule microarray, 635 nm fluorescence (AID 1126);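 note: printed compound slides probed with Chrdl2 protein at 4 µg/mL for 1 h at 4 C; score merges 667 nm emission intensity with signal to noise over three replicate slides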
- Measurement conditions: small-molecule microarray binding, fluorescence 635 nm; higher = more signal
Label Condition met when composite z-score is at or above 0.2; otherwise label Condition not met.

compound="COC(=O)[C@H](C)NC(=O)CCC1CC(OC(=O)NCc2cccc3ccccc23)CC2(CCCC(COC(=O)NCCc3ccc(Cl)cc3)O2)O1 (stereo partly drawn)" classification="Condition not met"
compound=CCCC[C@@H](O)C1=C(C)C[C@H]2C(=O)N(Cc3ccccc3)C(=O)[C@H]2[C@H]1CO classification="Condition met"
compound=NC(=O)NCC#Cc1ccc2c(c1)[C@]1(C(=O)N2)[C@H](c2ccc(O)cc2)N2[C@H](c3ccccc3)[C@H](c3ccccc3)OC(=O)[C@H]2[C@@H]1C(=O)N1CCCCCCC1 classification="Condition met"
compound=CC(C)CN1CCc2nc(-c3ccccc3)c3c(c2CC1)CO[C@@H](C)C3 classification="Condition met"
compound=C#C[C@@H](CC)O[Si](C#Cc1ccc(Oc2ccccc2)cc1)(C(C)C)C(C)C classification="Condition met"
compound=O=C1C2=CC[C@H]3C(=O)N(Cc4ccc5c(c4)OCO5)C(=O)[C@H]3[C@H]2[C@H](O)[C@@H]2O[C@H]12 classification="Condition met"
compound=Cn1c(=O)n2n(c1=O)[C@H]1[C@H](O)[C@@H]3O[C@@H]3C(=NOC[C@@H](O)COCc3ccco3)[C@H]1CC2 classification="Condition met"
compound=O=C1[C@H]2[C@H]3[C@H](O)[C@H](O)CC(=NOCc4ccccc4)[C@@H]3CC[C@H]2C(=O)N1C1CCCCC1 classification="Condition not met"

###

- Test system: Sonic hedgehog protein (Shh)
- Assay text: small-molecule binders of Shh protein, primary screen, biochemical, small-molecule microarray, 635/667 nm fluorescence (AID 1151);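 note: Shh protein binding to compounds spotted on small-molecule microarray slides; score combines spot fluorescence intensity with signal-to-noise across triplicate slides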
- Measurement conditions: small-molecule microarray binding, 635 nm fluorescence; higher = more signal
Overview of reported composite z-score across a group of compounds:
Assay endpoint: composite z-score

compound="COC(=O)[C@H](C)NC(=O)CCC1CC(OC(=O)NCc2ccc3c(c2)OCO3)CC2(CCCC(COC(=O)NCCOc3ccccc3)O2)O1 (stereo partly drawn)" test_system="Sonic hedgehog protein (Shh)" assay_endpoint="composite z-score" test_value=1.67
compound="COC(=O)[C@@H]1CC[C@H](C)[C@@H](c2ccc(C)cc2)N1C(=O)c1ccc(C=NOC(C)CN2CCCCc3nc(C)c(C)cc32)cc1 (stereo partly drawn)" test_system="Sonic hedgehog protein (Shh)" assay_endpoint="composite z-score" test_value=0.328
compound="CCOC(=O)C1=CCC(c2cc3ccccc3[nH]2)NC1 (stereo not drawn)" test_system="Sonic hedgehog protein (Shh)" assay_endpoint="composite z-score" test_value=-0.402
compound=CO[C@H]1COC(=O)[C@@H]2CCCN2C(=O)CC=C[C@@H](C)[C@H](OC)COC(=O)CC=C[C@@H]1C test_system="Sonic hedgehog protein (Shh)" assay_endpoint="composite z-score" test_value=1.98
compound=O=C1[C@H]2[C@H]3[C@H](O)[C@H](O)CC(=NO[C@@H]4O[C@H](CO)[C@@H](O)[C@H](O)[C@H]4O)[C@H]3CC[C@H]2C(=O)N1C1CCCCC1 test_system="Sonic hedgehog protein (Shh)" assay_endpoint="composite z-score" test_value=0.61
compound=CC(C)[C@@H](OCc1ccccc1)[C@H](C)C=NO[C@H](C)c1cn([C@H](CO)Cc2ccccc2)nn1 test_system="Sonic hedgehog protein (Shh)" assay_endpoint="composite z-score" test_value=0.29
compound="CC1(C)OCC(C(O)C2=CCCCC2=O)CO1 (stereo not drawn)" test_system="Sonic hedgehog protein (Shh)" assay_endpoint="composite z-score" test_value=1.5
compound=CC(CCC(=O)OC[C@H]1O[C@H](C#Cc2ccccc2)C=C[C@@H]1Oc1ccc(C)cc1)=NOC[C@@H](O)COCc1ccco1 test_system="Sonic hedgehog protein (Shh)" assay_endpoint="composite z-score" test_value=-2.43
